- Tested system: metabotropic glutamate receptors mGluR2 (Rattus norvegicus, UniProt P31421)
- Sequence (P31421 19-872): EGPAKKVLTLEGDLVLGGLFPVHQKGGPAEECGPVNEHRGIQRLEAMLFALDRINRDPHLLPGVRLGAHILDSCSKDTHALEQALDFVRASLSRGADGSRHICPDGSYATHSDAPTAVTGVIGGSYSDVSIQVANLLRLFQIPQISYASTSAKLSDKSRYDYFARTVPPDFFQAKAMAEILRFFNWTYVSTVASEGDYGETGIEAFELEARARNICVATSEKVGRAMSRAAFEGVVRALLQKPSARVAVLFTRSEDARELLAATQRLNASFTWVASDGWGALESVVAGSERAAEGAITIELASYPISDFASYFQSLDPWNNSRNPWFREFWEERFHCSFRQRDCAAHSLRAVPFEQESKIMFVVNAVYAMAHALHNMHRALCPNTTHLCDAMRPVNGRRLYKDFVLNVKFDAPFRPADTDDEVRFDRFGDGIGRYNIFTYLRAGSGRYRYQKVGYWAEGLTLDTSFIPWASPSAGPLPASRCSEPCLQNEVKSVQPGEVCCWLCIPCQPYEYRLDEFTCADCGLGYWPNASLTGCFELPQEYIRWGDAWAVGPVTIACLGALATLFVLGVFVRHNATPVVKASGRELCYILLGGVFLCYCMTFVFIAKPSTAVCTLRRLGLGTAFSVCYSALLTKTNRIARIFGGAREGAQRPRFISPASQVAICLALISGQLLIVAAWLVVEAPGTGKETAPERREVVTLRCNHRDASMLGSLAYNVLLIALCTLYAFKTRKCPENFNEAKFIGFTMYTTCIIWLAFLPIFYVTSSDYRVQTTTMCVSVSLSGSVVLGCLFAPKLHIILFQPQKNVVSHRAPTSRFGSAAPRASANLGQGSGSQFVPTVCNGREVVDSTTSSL
- Test summary: Effects of test compounds on cAMP accumulation (antagonism of glutamic acid suppression of Forskolin-stimulated cAMP) in CHO cells expressing mGluR2
- Applied conditions: CHO cells stably expressing mGluR2; 50% inhibition of suppression by 30 μM glutamic acid of cAMP increase by 10^-5 M Forskolin; cAMP EIA kit
Value kind: pIC50
Answer as the number alone; pIC50 is minus log10 of concentration in mol/L.

The molecule `N[C@@]1(C(=O)O)[C@H](O)C[C@@H]2[C@H]1[C@@]2(F)C(=O)O` showed pIC50 equal to 6.32

# credit: patent US6770676B2
